Tested on: OVCAR-3 ovarian
assay: NCI-60 one-dose screen, 48 h (100 = growth as untreated, 0 = no growth, -100 = all killed)
measurementSetup: 10 µM unless noted
Experimental: Growth inhibition of the OVCAR-3 human tumor cell line is measured as a screen for anti-cancer activity. Cells are grown in 96 well plates and exposed to the test compound for 48 hours. Compounds are tested at a single concentration, which is 10^-5 M for most compounds. The reported endpoint is percent growth (GI% or GIPRCNT), where numbers from 0 - 100% represent growth inhibition, and numbers from -100% - 0 represent cell death. For example, a value of 40 represents 60% growth inhibition. […]
About 83,000 compounds went through this panel and 20% of them were active in at least one assay; those are over-represented in the sample as a whole.
measuredParameter: growth (%)
Kindly provide the numeric value in % only, without the unit symbol.

The following compounds have reported results that may help.
compound: C=C(c1ccc(C(=O)NCCCn2ccnc2)cc1)c1cc2c(cc1C)C(C)(C)CCC2(C)C
growth / %: 25.7
//
compound: CC(C)(c1ccccc1)c1cc(O)c(C(C)(C)c2ccccc2)cc1O
growth / %: 38.9
//
compound: C=C[C@H]1CCC/C=C/[C@@H]2C[C@H](O)C[C@H]2[C@H](O)/C=C/C(=O)O1
growth / %: -62.7
//
compound: CCCCCCCCN(CCCCCCCC)C(=O)CCl
growth / %: 108

Data request: Looking for the measured growth of COc1cc(C2CC(c3ccc(C)cc3)=NN2C=O)ccc1Oc1ccnc2cc(Cl)ccc12 (stereo unspecified) , can you help?
Data returned: 39.5

Data request: Could you tell me which growth is on file for "COc1ccc(-c2cc(C(=O)Nc3ccc(C)cc3)nc3[nH]c(=O)sc23)cc1" ?
Data returned: 80.1

Data request: // lookup growth for ClC1(Cl)C2CCCCCCC21 (stereo unspecified)
Data returned: 120

Data request: Suppose we examine the compound CCCCCCCCCCCCC1CCC(=O)O1 (stereo unspecified) ; what growth value has been reported?
Data returned: 105

Data request: // lookup growth for "CC1(C)CN(CCNc2nccc(-c3c(-c4cccc(O)c4)nc4sccn34)n2)S(=O)(=O)N1"
Data returned: 77.5

Data request: growth lookup needed for CC(C)c1ccc2c(c1)CCC1C2CCCC1(C)NCc1ccccc1 (stereo unspecified) , thanks.
Data returned: 80.4

Data request: Please look up its growth: "Fc1ccc(-c2nc(-c3ccc(-c4nc5ccc(F)cc5[nH]4)cc3)no2)cc1"
Data returned: 94.3

----------
Test system: HS 578T breast
assay: NCI-60 one-dose screen, 48 h
measurementSetup: 10 µM unless noted
The panel holds about 83,000 compounds, 20% with a hit somewhere; the sample as a whole holds those more often. Calls of active or inactive are those of the source. Rule for the calls: active = growth percent below 10; inactive = the rest.
Give one outcome, nothing more. List: active, inactive

Known results for compounds:
compound: COc1cc(CN2CCC(N3CCCC3=O)c3ccccc32)cc(OC)c1OC (stereo unspecified)
discreteLabel: inactive
--
compound: COc1cnc2c(c1)C(=O)c1c-2n(CCCNC(C)C)c(=O)c2cc(Cl)ccc12
discreteLabel: inactive
--
compound: CC(C)CCSc1nc(Nc2ccccc2)c(C#N)c(-c2ccc(F)cc2)n1
discreteLabel: inactive

Data request: Outcome? "FC(F)(F)c1nn[nH]n1"
Data returned: inactive

Data request: Hi, sorry to bother you, what did the test record for "CCN(CC)c1ccc(/C=C2/NC(=O)NC2=O)cc1" ?
Data returned: active

Data request: Outcome logged for Oc1c(C(Nc2ccccc2Br)c2ccccc2)ccc2cccnc12 (stereo unspecified) in this assay:
Data returned: inactive
